Origin of measurements: patent US20130123222A1

# % Hit rate per entry
tested on: MDAMB435; assay: 11×7 synergism hit rate; format: cell-based; conditions: Melanoma MDAMB435, combination with SR16388

>  <Compound>
CC[C@]1(O)C[C@H]2CN(CCc3c([nH]c4ccccc34)[C@@](C(=O)OC)(c3cc4c(cc3OC)N(C=O)[C@H]3[C@@](O)(C(=O)OC)[C@H](OC(C)=O)[C@]5(CC)C=CCN6CC[C@]43[C@@H]65)C2)C1 [Vincristine]

>  <Units Symbol>
%

>  <% Hit rate>
6

$$$$
>  <Compound>
CC[C@]1(O)C[C@@H]2CN(CCc3c([nH]c4ccccc34)[C@@](C(=O)OC)(c3cc4c(cc3OC)N(C)[C@H]3[C@@](O)(C(=O)OC)[C@H](OC(C)=O)[C@]5(CC)C=CCN6CC[C@]43[C@@H]65)C2)C1 [Vinblastine]

>  <Units Symbol>
%

>  <% Hit rate>
4

$$$$
>  <Compound>
CC(=O)O[C@@]12CO[C@@H]1C[C@H](O)[C@@]1(C)C(=O)[C@H](O)C3=C(C)[C@@H](OC(=O)[C@H](O)[C@@H](NC(=O)OC(C)(C)C)c4ccccc4)C[C@@](O)([C@@H](OC(=O)c4ccccc4)[C@H]21)C3(C)C [Docetaxel]

>  <Units Symbol>
%

>  <% Hit rate>
14

$$$$
>  <Compound>
CC(=O)O[C@H]1C(=O)[C@@]2(C)[C@H]([C@H](OC(=O)c3ccccc3)[C@]3(O)C[C@H](OC(=O)[C@H](O)[C@@H](NC(=O)c4ccccc4)c4ccccc4)C(C)=C1C3(C)C)[C@]1(OC(C)=O)CO[C@@H]1C[C@@H]2O [Paclitaxel]

>  <Units Symbol>
%

>  <% Hit rate>
12

$$$$
